assay: Volume of distribution in CD-1 mouse at 10 mg/kg iv measured by UPLC-MS/MS method; assay type: ADME, organism-based; details: in vivo
Measurement label: Vd (L/kg)

I. O=C(/C=C/c1ccc2c(c1)C(=O)CC1(CCN(Cc3ccc(F)cc3)CC1)O2)NO
II. O=C(/C=C/c1ccc2c(c1)C(=O)CC1(CCN(CCc3ccccc3)CC1)O2)NO
QUERY: Larger number for Vd: I , or II ? Write down the label of the entry you select.
RESULT: II

###

tested on: MCF7; test: Anticancer activity against human MCF7 cells assessed as inhibition of cell proliferation measured after 48 hrs by MTT assay; type: functional, cell-based; settings: MCF7, 48 h
Measurement label: IC50 (µM)

I. COc1cc(C(=O)N2CCC3(CC2)CC(=O)c2ccccc2O3)cc(OC)c1OC
II. O=C1CC2(CCN(C(=O)C34CC5CC(CC(C5)C3)C4)CC2)Oc2ccccc21
III. Cc1ccc(S(=O)(=O)N2CCC3(CC2)CC(=O)c2ccccc2O3)cc1
QUERY: List the 3 molecules shown above, ordered by increasing IC50. Rank them, then answer with their labels in that order.
RESULT: III, II, I
(III: 6.78 µM, II: 23.9 µM, I: 47.1 µM)

###

assay: Aqueous solubility of the compound at pH 6.2; format: physicochemical; conditions: buffer
Measurement label: solubility

QUERY: solubility lookup needed for OC(CN1CCC2(CC1)CC(O)c1ccc3ccccc3c1O2)c1ccc(F)c(F)c1 (stereo unspecified) , thanks.
RESULT: > 42 µg/mL

###

assay: Antioxidant activity assessed as DPPH radical scavenging activity at 100 uM/ml; format: functional; conditions: read-out: IC50
Measurement label: IC50 (µM)

Smi | Measurement label | Reported measurement
CC(=O)N1CCC2(CC1)CC(=O)c1cc3c(cc1O2)CCC(C)(C)O3 | IC50 | 5.32
CC(=O)N1CCC2(CC1)CC(=O)c1c(ccc3c1CCC(C)(C)O3)O2 | IC50 | 6.59
O=C1O[C@H]([C@@H](O)CO)C(O)=C1O | IC50 | 8.64
CN1CCC2(CC1)CC(=O)c1c(ccc3c1CCC(C)(C)O3)O2 | IC50 | 6.59

###

test: Aqueous solubility of the compound at pH 5.0; assay type: physicochemical; conditions: buffer
Measurement label: solubility

QUERY: solubility lookup needed for OC(CN1CCC2(CC1)CC(O)c1ccc3ccccc3c1O2)c1ccc(F)c(F)c1 (stereo unspecified) , thanks.
RESULT: > 42 µg/mL

###

test: Antioxidant activity assessed as DPPH free radical scavenging activity at 500 microg/ml; assay type: functional
Measurement label: IC50 (µM)

Smi | IC50 (µM)
CC(=O)N1CCC2(CC1)CC(=O)c1cc(C(=O)/C=C3\C(=O)Nc4ccc(Br)cc43)c(O)cc1O2 | 58.6
CC(=O)N1CCC2(CC1)CC(=O)c1cc(C(=O)/C=C3\C(=O)Nc4ccccc43)c(O)cc1O2 | 47.7

a. CCOC(=O)N1CCC2(CC1)CC(=O)c1cc(C(=O)/C=C3\C(=O)Nc4ccc(Br)cc43)c(O)cc1O2
b. O=C1O[C@H]([C@@H](O)CO)C(O)=C1O
QUERY: Larger number for IC50: a , or b ? Write down the label of the entry you select.
RESULT: a
(a: 48.5 µM, b: 8.64 µM)
